Biological target: PD-L1 (Homo sapiens, UniProt Q9NZQ7)
Construct: determine if they can specifically dimerize the extracellular domains of PD-L1
Sequence (Q9NZQ7 19-238 limits assumed): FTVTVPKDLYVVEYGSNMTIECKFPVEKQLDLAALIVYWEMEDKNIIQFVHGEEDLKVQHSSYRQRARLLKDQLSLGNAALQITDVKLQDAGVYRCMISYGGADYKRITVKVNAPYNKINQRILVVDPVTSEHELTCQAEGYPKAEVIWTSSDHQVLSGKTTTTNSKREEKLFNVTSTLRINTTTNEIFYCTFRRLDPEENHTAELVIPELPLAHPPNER
Sequence (Q9NZQ7 19-238 limits assumed): as above
Assay: PD-L1/PD-L1 dimerization biochemical protein-protein interaction assay (ALPHA)
Format: binding
Conditions: compound-induced PD-L1 dimerization, head prints '1 nM' (0.5 nM His-tagged PD-L1 and 0.5 nM FLAG-tagged PD-L1), read-out: AC50 PDL1 Dimer Alpha 1 nM
OBSERVATION TYPE: AC50 (µM)
Note: unit µM is implicit; provide only the numeric part.

| STRUCTURE | AC50 (µM) |
| --- | --- |
| COc1nc(-c2cccc(-c3cccc(COc4nc(OC)c(CNC[C@H]5CCC(=O)N5)cc4Cl)c3Cl)c2Cl)ccc1CN1CC2(CCC(=O)N2)C1 | 0.539 |
| Cc1c(COc2cc(OCc3cncc(C#N)c3)c(CN[C@@](C)(CO)C(=O)O)cc2Cl)cccc1-c1cccc(-c2ccc3[nH]c([C@@H]4CCCN4)nc3c2)c1C | 0.162 |
| COc1nc(O[C@H]2CCc3c(-c4cccc(-c5ccc(CNC[C@@H]6CCC(=O)N6)c(OCC#N)n5)c4Cl)cccc32)c(Cl)cc1CN[C@@H]1CCC[C@@H]1O | 0.0295 |

# compound Cc1c(COc2cc(OCc3cncc(C#N)c3)c(CNC[C@@H](O)CC(=O)O)cc2Cl)cccc1-c1cccc(-c2ccc(OCCNCCO)c(C(N)=O)c2)c1C ; its AC50 = 0.182

# compound Cc1c(COc2cc(OCc3cncc(C#N)c3)c(CNC[C@@H](O)CC(=O)O)cc2Cl)cccc1-c1cccc(-c2ccc(OCCNC[C@@H](O)CC(=O)O)cc2)c1Cl ; its AC50 = 0.0383

# compound Cc1c(COc2cc(OCc3cncc(C#N)c3)c(CN[C@@](C)(CO)C(=O)O)cc2Cl)cccc1-c1cccc(-c2ccc(CNC[C@@H]3CCC(=O)N3)cc2)c1C ; its AC50 = 0.0406

# compound Cc1c(COc2cc(OCc3cncc(C#N)c3)c(CN[C@@H]3CCC[C@@H]3O)cc2Cl)cccc1-c1cccc(-c2ccc(CN3CC(CC(=O)O)C3)cc2)c1C ; its AC50 = 0.274

###

Target: PD-1/PD-L1 interaction (Homo sapiens, UniProt Q9NZQ7)
Construct: expressed in transfected cells; host or cells: CHO cells (aAPC-PD-L1) co-cultured with Jurkat cells overexpressing PD-1 and an NFAT-luciferase reporter
Sequence (Q9NZQ7 19-290): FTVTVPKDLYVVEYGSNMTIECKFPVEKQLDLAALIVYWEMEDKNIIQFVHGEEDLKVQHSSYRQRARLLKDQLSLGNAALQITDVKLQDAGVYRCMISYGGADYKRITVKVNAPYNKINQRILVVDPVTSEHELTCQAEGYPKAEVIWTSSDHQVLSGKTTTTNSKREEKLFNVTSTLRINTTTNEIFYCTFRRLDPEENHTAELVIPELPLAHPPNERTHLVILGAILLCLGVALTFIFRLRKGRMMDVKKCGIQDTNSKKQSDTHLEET
Assay: PD-1/PD-L1 NFAT reporter co-culture assay
Assay type: cell-based
Conditions: Jurkat PD-1 NFAT-luciferase cells co-cultured with aAPC-PD-L1 CHO cells, 6 hrs at 37° C.; read-out: EC50 NFAT Luciferase
EC50 strictly under 90 nM means 1.0; at 90 nM or over means 0.0.

The examples below pair each entry with its known result.
| STRUCTURE | ASSAY SYSTEM | GROUP LABEL |
| --- | --- | --- |
| Cc1c(COc2cc(OCc3cncc(C#N)c3)c(CNC[C@@H](O)CC(=O)O)cc2Cl)cccc1-c1cccc(-c2ccc(OCCNC[C@@H](O)CC(=O)O)c(Cl)c2)c1C | PD-1/PD-L1 interaction (Homo sapiens, UniProt Q9NZQ7) | 1.0 |
| Cc1c(COc2cc(OCc3cncc(C#N)c3)c(CN3CC[C@@H](C(=O)O)C3)cc2Cl)cccc1-c1cccc(-c2ccc(OCCNCCO)cc2)c1C | PD-1/PD-L1 interaction (Homo sapiens, UniProt Q9NZQ7) | 0.0 |

Continue with the next compound.
Given the entry COc1nc(O[C@H]2CCc3c(-c4cccc(-c5cc(C)c(CNC[C@@H]6CCC(=O)N6)c(OC)n5)c4Cl)cccc32)c(Cl)cc1CN1CC[C@@](C)(C(=O)O)C1 , would its reported EC50 be below 90 nM?
1.0
